Biological target: T1, human GCGR (full-length glucagon receptor of 477 amino acids) (human, UniProt P47871 26-477)
T1 construct: Expressed from a full-length plasmid on CHO / CHO-K1 cells; also called hGCGR
T1 sequence (P47871 26-477 limits assumed): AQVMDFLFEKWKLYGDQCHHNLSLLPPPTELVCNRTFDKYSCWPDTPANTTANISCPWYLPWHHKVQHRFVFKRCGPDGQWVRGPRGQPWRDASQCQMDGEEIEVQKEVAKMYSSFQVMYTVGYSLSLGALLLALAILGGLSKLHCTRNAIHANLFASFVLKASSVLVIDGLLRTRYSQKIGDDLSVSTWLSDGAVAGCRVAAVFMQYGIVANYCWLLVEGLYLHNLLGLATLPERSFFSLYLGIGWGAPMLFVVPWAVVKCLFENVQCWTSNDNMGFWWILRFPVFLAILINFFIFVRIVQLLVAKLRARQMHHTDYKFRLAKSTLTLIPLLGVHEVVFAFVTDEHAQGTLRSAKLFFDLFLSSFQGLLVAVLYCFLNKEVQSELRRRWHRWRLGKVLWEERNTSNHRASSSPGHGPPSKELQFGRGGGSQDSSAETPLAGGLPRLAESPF
Assay: competitive cell ELISA on GCGR-overexpressing CHO cells, biotin-labeled against unlabeled antibody; competitor ch1808
measured_property: competition efficiency IC % (%)
Field format: number, assumed %, no unit text.

Value of measured competition efficiency IC % for the entry ch1808 (antibody, human IgG4 S228P, kappa, F234A L235A, V domains shown, IgG4-AA / kappa chimeric antibody) VH: QVQLQQSGAELARPGASVKLSCKASGDTFTTNGISWVKQRIGQGLEWIGEIYPRSGNTYYNENFKGKATLTADKSSTTAYMELRRLTSEDSAVYFCARSITSVIGADYFDYWGQGTTLTVSS VL: DIQMTQTTSSLSASLGDRVTISCRASQDISNYLNWYQKKPDGTVKLLIYYSSTLHSGVPSRFSGSGSGTDYSLTISNLEQEDIATYFCQQGNTFPWTFGGGTKLEIKR : 100

// competition efficiency IC % lookup, binder = ch1805 (antibody, human IgG4 S228P, kappa, F234A L235A, V domains shown, IgG4-AA / kappa chimeric antibody; also called chimeric antibody of clone 1805) VH: EVQLQQSGPELVKPGASVKIPCKTSGYTFTDYNMDWVKQSHGRSLEWIGSIDPDNGGTIYNQKFKGKATLTVDKSSSTAYMELRSLTSEDTAVYYCTRDYYGSSSWFAYWGQGTLVTVSA VL: DVVMTQSPATLSVTPGDRVSLSCRASQSISDYLHWYQQKSHESPRLLIKYASQSISGIPSRFSGSGSGSDFTLSINSVEPEDVGVYYCQNGHSFPYTFGGGTKLEIKR , result: 100

// sample hu1810-12 (antibody, human IgG4 S228P, kappa, F234A L235A, V domains shown, IgG4-AA / kappa humanized antibody; also called hu1810_VH.1C + hu1810_VL.1B) VH: QVQLVQSGAEVKKPGSSVKVSCKASGGTFSNYAISWVKQAPGQGLEWIGEIYPTSGNTYYNEKFKGKATLTADRSTSTMYMELSSLRSEDTAVYYCASGVITTVVSTDYFDYWGQGTLVTVSS VL: DIQMTQSPSSLSASVGDRVTITCRASLDISNYLNWYQLKPGKAVKLLIYYTSTLHSGVSSRFSGSGSGTEYTLTISSLQPEDFATYYCQQGNMVPYTFGGGTKVEIKR , its competition efficiency IC % was 100

The reported competition efficiency IC % of the binder hu1803-9 (antibody, human IgG4 S228P, kappa, F234A L235A, V domains shown, IgG4-AA / kappa humanized antibody; also called hu1803_VH.1 + hu1803_VL.1B; GCGR monoclonal antibody) VH: EVQLVQSGAEVKKPGASVKVSCKASGYTFTDYWIEWVRQAPGQGLEWMGEILPGSTYTNYNEKFKGRVTMTRDTSTSTVYMELSSLRSEDTAVYYCARGLSTLMAVDYFDYWGQGTTVTVSS VL: DIQMTQSPSSLSASVGDRVTITCRASQDISNYLNWYQQKPGKAVKLLIYYSSTLHSGVPSRFSGSGSGTDYTLTISSLQPEDFATYYCQQTNIFPWTFGGGTKVEIKR was 100
